# testedSystem: Drosophila LCCH3 (Drosophila melanogaster)
# Sequence (Q08832 21-496): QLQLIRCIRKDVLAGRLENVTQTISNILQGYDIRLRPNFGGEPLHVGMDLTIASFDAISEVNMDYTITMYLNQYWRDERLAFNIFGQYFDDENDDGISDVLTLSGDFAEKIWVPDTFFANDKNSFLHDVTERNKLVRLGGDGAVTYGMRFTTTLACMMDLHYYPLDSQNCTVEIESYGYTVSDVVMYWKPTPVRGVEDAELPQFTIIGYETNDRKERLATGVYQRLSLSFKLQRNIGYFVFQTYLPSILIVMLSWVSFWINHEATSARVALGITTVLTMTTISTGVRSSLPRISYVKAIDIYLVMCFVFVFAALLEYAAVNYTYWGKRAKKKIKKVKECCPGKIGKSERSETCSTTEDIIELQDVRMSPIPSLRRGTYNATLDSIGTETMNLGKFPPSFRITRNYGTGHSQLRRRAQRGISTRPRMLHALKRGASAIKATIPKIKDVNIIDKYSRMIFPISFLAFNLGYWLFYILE
experimentalEndpoint: Kd

Qu. Identify measured Kd associated with NCc1cc(O)no1 [[^3 H] muscimol]
Ans. > 10 µM

====

# testedSystem: Drosophila Grd and LCCH3 (Drosophila melanogaster, UniProt Q08832+Q24352)
# Construct: made in house; host or cells: High Five (Trichoplusia ni) cells, co-infected with vBP8-Grd and vBP8-LCCH3
# Sequence (Q24352 59-686, one chain of several): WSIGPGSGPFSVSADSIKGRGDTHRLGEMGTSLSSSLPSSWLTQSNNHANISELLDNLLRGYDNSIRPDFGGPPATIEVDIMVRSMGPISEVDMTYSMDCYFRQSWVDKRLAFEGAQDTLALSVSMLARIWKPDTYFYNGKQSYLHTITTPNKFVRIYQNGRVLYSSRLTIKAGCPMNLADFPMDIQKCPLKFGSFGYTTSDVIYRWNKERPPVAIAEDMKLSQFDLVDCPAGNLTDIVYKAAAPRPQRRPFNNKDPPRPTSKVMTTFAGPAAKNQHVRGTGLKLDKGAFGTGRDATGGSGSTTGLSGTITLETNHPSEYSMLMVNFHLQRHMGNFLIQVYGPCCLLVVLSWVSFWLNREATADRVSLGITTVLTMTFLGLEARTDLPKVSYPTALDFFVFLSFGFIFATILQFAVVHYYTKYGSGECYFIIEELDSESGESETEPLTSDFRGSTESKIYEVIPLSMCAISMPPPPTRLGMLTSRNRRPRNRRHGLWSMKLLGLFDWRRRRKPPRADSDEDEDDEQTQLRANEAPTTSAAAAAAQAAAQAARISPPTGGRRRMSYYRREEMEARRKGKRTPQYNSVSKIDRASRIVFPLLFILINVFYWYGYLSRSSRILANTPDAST
# test: [3H] muscimol radioligand binding assay, membranes of High Five cells co-infected with vBP8-Grd/vBP8-LCCH3
# settings: half-maximal displacement of [3H] muscimol; read-out: IC50, Grd/LCCH3
experimentalEndpoint: IC50

Consider the following items and state reported IC50 for each.
1. COc1ccc(-c2ccc(=N)n(CCCC(=O)O)n2)cc1 [Gabazine]
2. NC/C=C\C(=O)O [cis-4-amino-crotonic acid]
3. NCCCC(=O)O [GABA, γ-aminobutyric acid]
4. NCCCCC(=O)O [5-amino-valeric acid]
5. NCC(CC(=O)O)c1ccc(Cl)cc1 (stereo not drawn) [Baclofen]
6. NCc1cc(=O)[nH]o1 [Muscimol]

Ans.
1: > 1000 µM; 2: 1.62 µM; 3: 0.038 µM; 4: 0.749 µM; 5: > 1000 µM; 6: 0.015 µM

Consider the following items and state reported IC50 for each.
1. O=C(O)C1=CCNCC1 [Isoguavacine]
2. O=S(=O)(O)C1CCNCC1 [Piperidine-4-sulfonate]
3. O=C(O)C1CCNCC1 [Isonipecotic acid]

Ans.
1: 0.19 µM; 2: > 1000 µM; 3: 2.68 µM

====

# testedSystem: Drosophila Rdl (Drosophila melanogaster)
# Construct: excised the full-length cDNA encoding Rdl; made in house; host or cells: High Five (Trichoplusia ni) cells, baculovirus vBP8-Rdl
# Sequence (P25123 45-606): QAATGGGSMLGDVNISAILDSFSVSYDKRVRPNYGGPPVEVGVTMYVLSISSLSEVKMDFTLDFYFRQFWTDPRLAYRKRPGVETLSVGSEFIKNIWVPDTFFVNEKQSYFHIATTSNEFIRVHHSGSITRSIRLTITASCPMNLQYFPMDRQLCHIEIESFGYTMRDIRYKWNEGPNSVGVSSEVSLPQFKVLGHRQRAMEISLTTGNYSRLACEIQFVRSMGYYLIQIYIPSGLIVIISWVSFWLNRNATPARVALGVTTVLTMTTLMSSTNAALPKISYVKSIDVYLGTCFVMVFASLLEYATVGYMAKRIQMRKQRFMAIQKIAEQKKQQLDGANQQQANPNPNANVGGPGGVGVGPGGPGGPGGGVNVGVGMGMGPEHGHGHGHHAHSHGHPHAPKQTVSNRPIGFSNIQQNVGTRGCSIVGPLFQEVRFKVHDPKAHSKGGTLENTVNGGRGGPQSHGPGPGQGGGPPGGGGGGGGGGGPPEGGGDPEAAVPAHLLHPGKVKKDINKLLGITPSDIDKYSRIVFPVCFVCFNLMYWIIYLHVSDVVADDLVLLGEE
# test: [3H] muscimol radioligand binding assay, membranes of High Five cells infected with vBP8-Rdl
# settings: half-maximal displacement of [3H] muscimol; read-out: IC50, Rdl
Kindly state pIC50 for each of the entries shown.
Numbers only, as −log10 of the molar value.

Use the examples below as a reference point.
{"molecule": "O=C(O)C1CCNCC1 [Isonipecotic acid]", "pIC50": 5.77}
{"molecule": "NCCCCC(=O)O [5-amino-valeric acid]", "pIC50": 5.68}
{"molecule": "NC/C=C\\C(=O)O [cis-4-amino-crotonic acid]", "pIC50": 5.54}
{"molecule": "O=C(O)C1=CCNCC1 [Isoguavacine]", "pIC50": 6.59}

Proceed to the following item.
Qu. Provide pIC50, system Drosophila Rdl (Drosophila melanogaster), entry NCc1cc(=O)[nH]o1 [Muscimol]
Ans. 7.92
